Target: T1, BMP-12 (UniProt Q7Z4P5 322-450, limits assumed)
T1 construct: also called BMP12/GDF7
T1 sequence (looked up): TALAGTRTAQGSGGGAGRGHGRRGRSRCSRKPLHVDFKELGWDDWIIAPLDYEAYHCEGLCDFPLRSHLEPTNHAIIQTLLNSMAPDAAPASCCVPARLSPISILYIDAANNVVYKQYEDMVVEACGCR
Experiment: peptide resin, filter plate; load 3: 25 mM Na Acetate pH 5.0
No end group written: not given here.
metricName: Flow-through conc
# number then unit; no other words

Consider the reported Flow-through conc for these binders:
binder: Ac-LYVSDVGWNDWIVK (not fully specified (residue 3); printed as Ac-LYV**SDVGWNDWIVK; also: ** after V3 not explained) [BMP2 C-trunc_2 peptide 746]
dataValue: 0.07 mg/mL
--
binder: Ac-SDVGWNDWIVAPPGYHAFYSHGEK [BMP2 N-trun 1S peptide 751]
dataValue: 0.124 mg/mL
--
binder: Ac-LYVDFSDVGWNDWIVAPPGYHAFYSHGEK [BMP2 Full peptide 747]
dataValue: 0.046 mg/mL

Next up:
Please look up its Flow-through conc: Ac-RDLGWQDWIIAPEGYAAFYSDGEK [BMP5 peptide 748]
0.024 mg/mL
